As shown below, each of these binders has a reported FACS reading value.
- tested on: T1, Claudin 18.2 (CLDN18.2), expressed on CHOS-CLDN 18.2 / HEK293-CLDN 18.2 / HCC827-CLDN 18.2 cells (human, UniProt P56856-2 1-261)
- T1 construct: whole, on cells; The species is not repeated for the CHOS-CLDN 18.2 cells; also called claudin-18A2
- protocol details: FACS, CHOS-CLDN18.2 cells, 0.020 µg/ml

binder	FACS reading
QP14501446 (antibody, human IgG1, kappa, V domains shown, Humanized from QP199200) VH: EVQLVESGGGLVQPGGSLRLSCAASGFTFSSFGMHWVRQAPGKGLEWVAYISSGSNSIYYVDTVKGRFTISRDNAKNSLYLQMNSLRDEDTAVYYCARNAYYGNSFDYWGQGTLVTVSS VL: DIVMTQSPDSLAVSLGERATINCKSSQSLLNSGNQKNYLTWYQQKPGQPPKLLIYWASTRESGVPDRFSGSGSGTDFTLTISSLQAEDVAVYYCQNNYYYPLTFGGGTKVEIKR	6350
QP024025 (antibody, human IgG1, V domains shown, also called IMAB362; 175D10(IMAB362)) VH: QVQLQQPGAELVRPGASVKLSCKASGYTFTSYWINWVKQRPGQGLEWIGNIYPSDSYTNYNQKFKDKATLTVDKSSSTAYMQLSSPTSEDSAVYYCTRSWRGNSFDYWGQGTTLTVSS VL: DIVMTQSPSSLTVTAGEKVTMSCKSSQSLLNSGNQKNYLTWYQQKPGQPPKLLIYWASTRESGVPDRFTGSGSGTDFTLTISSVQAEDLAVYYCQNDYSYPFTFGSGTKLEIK	6950
QP14501448 (antibody, human IgG1, kappa, V domains shown, Humanized from QP199200) VH: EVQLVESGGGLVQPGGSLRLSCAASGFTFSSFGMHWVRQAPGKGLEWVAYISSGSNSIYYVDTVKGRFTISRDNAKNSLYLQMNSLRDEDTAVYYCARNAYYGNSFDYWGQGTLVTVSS VL: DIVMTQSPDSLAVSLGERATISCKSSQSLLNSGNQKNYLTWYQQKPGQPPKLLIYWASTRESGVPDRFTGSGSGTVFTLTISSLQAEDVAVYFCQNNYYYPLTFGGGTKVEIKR	7460
QP14491448 (antibody, human IgG1, kappa, V domains shown, Humanized from QP199200) VH: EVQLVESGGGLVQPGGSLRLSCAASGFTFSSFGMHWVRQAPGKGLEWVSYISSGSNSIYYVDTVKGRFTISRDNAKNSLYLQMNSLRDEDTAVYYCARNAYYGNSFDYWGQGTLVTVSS VL: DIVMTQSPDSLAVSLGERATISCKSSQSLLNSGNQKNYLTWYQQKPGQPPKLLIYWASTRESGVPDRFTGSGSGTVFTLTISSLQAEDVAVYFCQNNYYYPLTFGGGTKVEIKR	6320
